Target: GABARAPL2 (purified, for ITC) (human)
Sequence (P60520 1-116): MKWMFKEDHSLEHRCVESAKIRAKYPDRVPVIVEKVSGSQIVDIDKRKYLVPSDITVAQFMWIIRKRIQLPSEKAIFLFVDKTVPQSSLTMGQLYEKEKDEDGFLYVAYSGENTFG
Experiment: ITC
pKd: −log10 of the molar value.
measured property: pKd

INSERT INTO measurements (binder, value_measured) VALUES
  ('DGTLIIDLPDSY [LIR(TP[T]) peptide]', '< 3.88');
